System: mucin immobilized to IAM.PC.DD2
Assay: HPLC on MIC column (2:1 mucin to PC IAM particles): retention time, k′MIC, derived Km and Peff MIC
Settings: determined by linear equation; Table 6
Description: [formula] where Dm is the membrane diffusion coefficient of the solute, Km is the membrane equilibrium constant, and L is the membrane thickness (Stein, W., Transport and Diffusion Across Cell Membranes, Academic Press, Orlando, Fla. (1986)). […] [formula] Thus, Dm can be calculated from the molecular weight. […] The partition ratio is determined by the equation, k′−(tr−to)/to, [5] where tr is the retention time of the drug and to is the void volume of the column. […]

[
  {
    "compound": "CC(C)(C)NCC(O)c1cc(O)cc(O)c1 (stereo not shown)",
    "assay system": "mucin immobilized to IAM.PC.DD2",
    "Peff MIC (×10^−4 cm/s)": "1.21 ×10^−4 cm/s"
  },
  {
    "compound": "CC(C)NCC(O)COc1cccc2ccccc12 (stereo not shown)",
    "assay system": "mucin immobilized to IAM.PC.DD2",
    "Peff MIC (×10^−4 cm/s)": "4.24 ×10^−4 cm/s"
  },
  {
    "compound": "COCCc1ccc(OCC(O)CNC(C)C)cc1 (stereo not shown)",
    "assay system": "mucin immobilized to IAM.PC.DD2",
    "Peff MIC (×10^−4 cm/s)": "1.21 ×10^−4 cm/s"
  },
  {
    "compound": "NC(=O)N1c2ccccc2C=Cc2ccccc21 [carbamazepine]",
    "assay system": "mucin immobilized to IAM.PC.DD2",
    "Peff MIC (×10^−4 cm/s)": "2.96 ×10^−4 cm/s"
  }
]

---

Measured log k′MIC of individual entries
System: mucin immobilized to IAM.PC.DD2
Test: HPLC on MIC column (2:1 mucin to PC IAM particles): retention time, k′MIC, derived Km and Peff MIC
Conditions: MIC 2:1
Method: [formula] where Dm is the membrane diffusion coefficient of the solute, Km is the membrane equilibrium constant, and L is the membrane thickness (Stein, W., Transport and Diffusion Across Cell Membranes, Academic Press, Orlando, Fla. (1986)). […] [formula] Thus, Dm can be calculated from the molecular weight. […] The partition ratio is determined by the equation, k′−(tr−to)/to, [5] where tr is the retention time of the drug and to is the void volume of the column. […]
reported endpoint: log k′MIC

[
  {
    "compound": "Cc1cc(=O)n(-c2ccccc2)n1C [Antipyrine]",
    "reported endpoint": "log k′MIC",
    "observed": 1.89
  },
  {
    "compound": "C[C@]12C[C@H](O)[C@H]3[C@@H](CCC4=CC(=O)CC[C@@]43C)[C@@H]1CC[C@@H]2C(=O)CO",
    "reported endpoint": "log k′MIC",
    "observed": 1.78
  },
  {
    "compound": "CC(=O)CC(c1ccccc1)c1c(O)c2ccccc2oc1=O (stereo not drawn)",
    "reported endpoint": "log k′MIC",
    "observed": 1.74
  },
  {
    "compound": "CC(C)(C)NCC(O)c1cc(O)cc(O)c1 (stereo not drawn)",
    "reported endpoint": "log k′MIC",
    "observed": 1.64
  },
  {
    "compound": "COCCc1ccc(OCC(O)CNC(C)C)cc1 (stereo not drawn)",
    "reported endpoint": "log k′MIC",
    "observed": 1.64
  },
  {
    "compound": "CC(C)NCC(O)COc1cccc2ccccc12 (stereo not drawn)",
    "reported endpoint": "log k′MIC",
    "observed": 1.85
  }
]

---

tested on: mucin immobilized to PC IAM particles; assay: pH and mucin layer thickness dependence of partition ratio on MIC columns (1:2 and 2:1); conditions: column 1:2 mucin to PC IAM, 0.32 μm mucin layer; mobile phase pH 3
Structures can show the parent of a compound that is named as a salt.
Measured (1:2) k′ (pH 3) of individual entries
reported endpoint: (1:2) k′ (pH 3)

[
  {
    "molecule": "CC(C)NCC(O)COc1ccc(CC(N)=O)cc1 (stereo not shown) [Atenolol]",
    "reported endpoint": "(1:2) k′ (pH 3)",
    "observed": 39.00
  },
  {
    "molecule": "CCOC(=O)[C@H](CCc1ccccc1)N[C@@H](C)C(=O)N1CCC[C@H]1C(=O)O [enalapril maleate]",
    "reported endpoint": "(1:2) k′ (pH 3)",
    "observed": 27.33
  },
  {
    "molecule": "CC(=O)CC(c1ccccc1)c1c(O)c2ccccc2oc1=O (stereo not shown) [Warfarin]",
    "reported endpoint": "(1:2) k′ (pH 3)",
    "observed": 25.67
  },
  {
    "molecule": "COCCc1ccc(OCC(O)CNC(C)C)cc1 (stereo not shown) [Metoprolol]",
    "reported endpoint": "(1:2) k′ (pH 3)",
    "observed": 50.67
  },
  {
    "molecule": "CN(Cc1cnc2nc(N)nc(N)c2n1)c1ccc(C(=O)N[C@@H](CCC(=O)O)C(=O)O)cc1 [amethopterin]",
    "reported endpoint": "(1:2) k′ (pH 3)",
    "observed": 10.67
  },
  {
    "molecule": "CN(CC(=O)O)C(=N)N [Creatine]",
    "reported endpoint": "(1:2) k′ (pH 3)",
    "observed": 39.00
  },
  {
    "molecule": "C=CCc1ccccc1OCC(O)CNC(C)C (stereo not shown) [Alprenolol]",
    "reported endpoint": "(1:2) k′ (pH 3)",
    "observed": 54.00
  },
  {
    "molecule": "Nc1nc2c(ncn2COCCO)c(=O)[nH]1 [Acyclovir]",
    "reported endpoint": "(1:2) k′ (pH 3)",
    "observed": 25.67
  },
  {
    "molecule": "CN/C(=N/CCSCc1nc[nH]c1C)NC#N [Cimetidine]",
    "reported endpoint": "(1:2) k′ (pH 3)",
    "observed": 25.67
  },
  {
    "molecule": "O=C(O)c1cc(/N=N/c2ccc(S(=O)(=O)Nc3ccccn3)cc2)ccc1O [sulfasalazine]",
    "reported endpoint": "(1:2) k′ (pH 3)",
    "observed": 87.33
  },
  {
    "molecule": "CC(C)(C)NCC(O)c1cc(O)cc(O)c1 (stereo not shown) [Terbutaline]",
    "reported endpoint": "(1:2) k′ (pH 3)",
    "observed": 45.67
  },
  {
    "molecule": "CC(CCc1ccccc1)NCC(O)c1ccc(O)c(C(N)=O)c1 (stereo not shown) [Labetalol]",
    "reported endpoint": "(1:2) k′ (pH 3)",
    "observed": 24.00
  },
  {
    "molecule": "Cn1c(=O)c2c(ncn2C)n(C)c1=O [Caffeine]",
    "reported endpoint": "(1:2) k′ (pH 3)",
    "observed": 44.00
  },
  {
    "molecule": "CC(=O)Oc1ccccc1C(=O)O [acetyl salicylic acid]",
    "reported endpoint": "(1:2) k′ (pH 3)",
    "observed": 34.00
  },
  {
    "molecule": "Cc1cc(=O)n(-c2ccccc2)n1C [Antipyrine]",
    "reported endpoint": "(1:2) k′ (pH 3)",
    "observed": 54.00
  },
  {
    "molecule": "CC(COc1ccccc1)N(CCCl)Cc1ccccc1 (stereo not shown) [Phenoxybenzamine HCl]",
    "reported endpoint": "(1:2) k′ (pH 3)",
    "observed": 20.67
  },
  {
    "molecule": "O=C(CCCN1CCC(O)(c2ccc(Cl)cc2)CC1)c1ccc(F)cc1 [haloperidol]",
    "reported endpoint": "(1:2) k′ (pH 3)",
    "observed": 30.67
  },
  {
    "molecule": "C[C@]12C[C@H](O)[C@H]3[C@@H](CCC4=CC(=O)CC[C@@]43C)[C@@H]1CC[C@@H]2C(=O)CO [corticosterone]",
    "reported endpoint": "(1:2) k′ (pH 3)",
    "observed": 24.00
  },
  {
    "molecule": "CC(=O)Nc1ccc(O)cc1 [acetaminophen]",
    "reported endpoint": "(1:2) k′ (pH 3)",
    "observed": 64.00
  },
  {
    "molecule": "NS(=O)(=O)c1cc(C(=O)O)c(NCc2ccco2)cc1Cl [Furosemide]",
    "reported endpoint": "(1:2) k′ (pH 3)",
    "observed": 40.67
  },
  {
    "molecule": "CC(C)NCC(O)COc1cccc2ccccc12 (stereo not shown) [Propranolol]",
    "reported endpoint": "(1:2) k′ (pH 3)",
    "observed": 75.67
  },
  {
    "molecule": "CC(C(=O)O)c1cccc(C(=O)c2ccccc2)c1 (stereo not shown) [Ketoprofen]",
    "reported endpoint": "(1:2) k′ (pH 3)",
    "observed": 25.67
  }
]
